B1: PDZK1 (parent)
chain: RETASLKLLPHQPRIVEMKKGSNG

Variants of: B1
Assay: protein stability index of a GFP-peptide fusion (GPS, HEK-293T) (PSI 1-6); higher = more stable;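 also: lentivirally expressed fusions sorted by FACS into six bins by GFP to DsRed ratio, PSI derived from sequencing read proportions per bin multiplied by bin number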
Conditions: c terminus: a fixed tail appended
metric-name: protein stability index
Answer as a number with no unit attached.

[Q] Name the recorded protein stability index of the variant listed here: RETAHLKLLPHQPRIVEMKKGSNG
[A] 2.98

[Q] Name the recorded protein stability index of the variant listed here: QETASLKLLPHQPRIVEMKKGSNG
[A] 3.4

[Q] Name the recorded protein stability index of the variant listed here: RETASLKILPHQPRIVEMKKGSNG
[A] 3.34
